From: PubChem BioAssay (NCI)

Tested on: HOP-62 NSCLC
EXPERIMENT DESCRIPTION: NCI-60 one-dose screen, 48 h
CONDITION SUMMARY: 10 µM unless noted
The panel holds about 83,000 compounds, 20% with a hit somewhere; the sample as a whole holds those more often. Calls of active or inactive are those of the source. Rule for the calls: active = growth percent below 10; inactive = the rest.
Return exactly one item of YES (active), NO (inactive)

Some entries whose results are on file:
| COMPOUND | CATEGORY |
| --- | --- |
| O=C(CSc1nc(-c2ccc(Cl)cc2)cn1-c1ccc(Cl)cc1)c1ccc(Br)cc1 | NO |
| O=C(C[N+](=O)[O-])c1ccc(Cl)cc1 | NO |
| Clc1ccc2c(c1)NC1(CCSc3ccccc31)n1nccc1-2 (stereo not given) | NO |

In: How did this test come out for C=CCN=C1NC(=O)/C(=C/c2cc(C(C)(C)C)c(O)c(C(C)(C)C)c2)S1 ?
Out: NO

In: # lookup: test call for COc1cccc(NC(=O)c2sc3nc4c(cc3c2N)CCCC4)c1
Out: NO

In: Outcome? CC(=O)Nc1ccc(S(=O)(=O)N2C(=O)CCC2C(=O)Nc2ccc(Br)cc2)cc1 (stereo not given)
Out: NO

In: Outcome logged for CC/C=C\C/C=C\C[C@H](O)C/C=C1/C(=O)C=C[C@H]1C/C=C\CCC(=O)OC in this assay:
Out: NO

In: In this assay, the call recorded for CCN1C(=O)N(CC)C2Nn3c(s/c(=C\c4cccc(F)c4)c3=O)=NC21 (stereo not given) was what?
Out: NO

In: Returns: the outcome recorded for CCN(Cc1ccc(CN(CC)C(=O)C(Cl)(Cl)Cl)cc1)C(=O)C(Cl)(Cl)Cl in this assay.
Out: NO

In: # lookup: test call for NC(=O)c1c(NC(=O)c2ccc(OCC3CCCO3)cc2)sc2c1CCCC2 (stereo not given)
Out: NO

In: Status in this test for O=[N+]([O-])c1cccc(-c2cc(-c3cc(Br)ccc3O)[nH]n2)c1 ?
Out: NO

In: Please let me know the test result on file for O=C(CN1CCOCC1)Nc1ccc(-c2nc3ccccc3s2)cc1 .
Out: NO

In: Assay outcome for COc1cc2nc(N3CCC[C@@H](NC4=CC(=O)c5ccccc5C4=O)C3)nc(N)c2cc1OC : what was it?
Out: NO
